Where these numbers come from: PubChem BioAssay (NCATS)

measurement protocol: AP1 Signaling Pathway (AID 357);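 note: ME-180 reporter cells stimulated with EGF at its EC50 level; % is set by controls: 0 for no effect and ±100 for the full control effect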
run parameters: ME-180 (cervical carcinoma) AP-1-bla reporter, EGF-induced, beta-lactamase ratio, 5 h; at 7.69 µM (top of the series) unless noted
Records with an inconclusive call do not appear.
property: activity change, negative = inhibition (%)
All answers are understood in %, so give the number only.

In [3]: df
Out[3]:
                           substance_smiles  quantity_unit  obs_value
0  O=C(c1ccco1)N1CCC[C@@]2(CCN(C(c3ccccc3)c3ccccc3)C2)C1              %      -9.33
1  Cn1cccc1C(=O)N1CCC2(CC1)CN(C(=O)Nc1cccc(F)c1)C2              %       5.05
2  CN(C)c1ncc2nc(-c3ccc(Cl)cc3)c(=O)n(C[C@H]3CCCO3)c2n1              %       9.11
3  CC(=O)N1CCC2(CCCN(c3cccc(-c4ccccc4)c3)C2)CC1              %      -12.3
4  Cc1cnc(CNc2ncnc3ccc(-c4ccccc4C#N)cc23)cn1              %       9.76

-- ask Data request, read-out activity change, negative = inhibition, for O=c1cnc2cnc(N3CCOCC3)nc2n1C[C@H]1CCCO1
-- reply 2.78

-- ask Request: CS(=O)(=O)Nc1cccc(-c2cncnc2Nc2ccccc2)c1
-- reply -20.2

-- ask And the next one, COc1ccc(C(=O)N2CCC3(CCCN(CC(C)C)C3)CC2)cc1 ?
-- reply -7.24

-- ask // next record CC(=O)N1CCC[C@@]2(CCN(C(c3ccccc3)c3ccccc3)C2)C1
-- reply -0.322

-- ask Cool, now CN(C)Cc1ccccc1-c1nc(NC2CC2)c2ccccc2n1
-- reply 1.1

-- ask # iterate: Cc1nc2cnc(N3CCNCC3)nc2n(CCC#N)c1=O
-- reply -1.38

-- ask Queued: Cc1cnc(CNc2ncnc3ccc(-c4ccccc4CN(C)C)cc23)cn1
-- reply 16.4

-- ask And COC(=O)N1CCC2(CC1)CCN(c1cccc(-c3ccccc3)c1)CC2 ?
-- reply -18.3

-- ask Another: CS(=O)(=O)N1CCC2(CC1)CN(c1ncccn1)C2
-- reply -16

-- ask // next record O=c1c(-c2ccccc2)nc2cncnc2n1C1CC1
-- reply -14.9

-- ask Likewise for Cc1noc(C)c1C(=O)N1CCC2(CCCN(c3ccccn3)C2)CC1 ?
-- reply -4.45

-- ask Can you check O=c1c(-c2ccc(Cl)cc2)nc2cnc(Nc3ccccc3)nc2n1C1CC1 next?
-- reply -1.39

-- ask Next: N#Cc1ccc(CN2CCCC3(CCN(C(=O)c4cc(C(F)(F)F)cc(C(F)(F)F)c4)CC3)C2)cc1
-- reply 16.4

-- ask Another: O=C(c1ccco1)N1CCC2(CCCN(c3ccccn3)C2)CC1
-- reply -0.937

-- ask Again, but for CN(C)c1ncc2nc(-c3ccc(Cl)cc3)c(=O)n(CCC#N)c2n1
-- reply 7.51

-- ask Try the compound O=C(c1cnccn1)N1CCC2(CCCN(c3ccccn3)C2)CC1
-- reply -13

-- ask Then COc1ccc(CNc2nc(-c3cccc(C#N)c3)nc3ccccc23)c(OC)c1 ?
-- reply -19.2

-- ask Here is the next compound: COCCn1c(=O)c(C)nc2cnc(OCc3ccccc3)nc21
-- reply -16.6

-- ask Same question for CS(=O)(=O)N1CCC2(CCN(c3ccccn3)CC2)CC1 please.
-- reply -5.04

-- ask Param item: c1csc(CNc2nc(-c3ccoc3)nc3ccccc23)c1
-- reply -9.82

-- ask Please answer likewise for COc1ccc(NC(=O)N2CC[C@@]3(CCCN(C(=O)c4c(C)noc4C)C3)C2)cc1
-- reply -9.74

-- ask Follow-up entry: COc1cccc(Cn2c(=O)c(-c3cccs3)nc3cnc(OCc4ccccc4)nc32)c1
-- reply 27.9

-- ask Can you check N#Cc1ccc(CN2CC[C@@]3(CCCN(C(=O)c4ccco4)C3)C2)cc1 next?
-- reply 0.694

-- ask Record: COc1cccc(-c2cncnc2NCc2cccc(C)c2)c1
-- reply -11.8
